Please respond with reported cell number for every item in the list.
Tested on: TDF
Assay: cell number relative to DMSO (% of DMSO); higher = more cells (less growth inhibition / toxicity)
Settings: concentration: 10 µM; 24 h
Numbers only.

Example compounds with recorded cell number:
{"COMPOUND": "CC=C(C)C(=O)OC1CC(C)=CC(=O)C2(C)CCC(O)(C(C)C)C12 (configuration not stated)", "cell number": 102}
{"COMPOUND": "CC1CNCCN1S(=O)(=O)c1cccc2cnccc12.Cl.Cl (configuration not stated)", "cell number": 105}
{"COMPOUND": "O=[N+]([O-])c1ccc(CSc2ncnc3c2ncn3C2OC(CO)C(O)C2O)cc1 (configuration not stated)", "cell number": 111}

Each compound below has a reported value. Please supply its cell number.
1. Br.Br.N=C(N)SCCc1cccc(CCSC(=N)N)c1 [1,3-PBIT dihydrobromide]
2. O=C(OC1Cc2c(O)cc(O)cc2OC1c1cc(O)c(O)c(O)c1)c1cc(O)c(O)c(O)c1 (configuration not stated) [Epigallocatechin gallate]
3. O=C1Nc2cc(Br)ccc2C1=C1N=c2ccccc2=C1NO [(2'Z,3'E)-6-Bromoindirubin-3'-oxime]
4. c1ccc2c(-c3ccncc3)c[nH]c2c1
5. CNCC(O)c1ccc(O)c(O)c1.O=C(O)C(O)C(O)C(=O)O (single isomer, unassigned; (-)) [(-)-Epinephrine bitartrate]
6. Cc1cccc(C)c1OCC(N)C(C)C.I (configuration not stated)

a:
1: 113; 2: 97; 3: 61.4; 4: 106; 5: 107; 6: 108

Give me cell number for each of these compounds, listed below.
1. COC(=O)[C@@H](N)CSCC=C(C)CCC=C(C)CCC=C(C)C
2. CCC(NC(C)C)C(O)c1ccc(O)c2[nH]c(=O)ccc12.Cl (configuration not stated) [Procaterol.HCl]
3. Cn1c(=O)c2c(ncn2C)n(C)c1=O
4. COc1cc(CCC(C)=O)ccc1O
5. COC(=O)C(C)(N)Cc1ccc(O)cc1.Cl (racemic) [alpha-Methyl-DL-tyrosine methyl ester hydrochloride]
6. Cl.c1ccc(C2CN3CCSC3=N2)cc1 (configuration not stated) [Tetramisole hydrochloride]
7. O=C1c2ccccc2-n2c1nc1ccccc1c2=O

a:
94.7
105
102
90.8
103
114
53.6

// for each compound below, give its cell number
1. Cc1ccc(OCC(O)C(C)NC(C)C)c2c1CCC2.Cl (configuration not stated) [ICI 118,551 hydrochloride]
2. O=C(Cc1ccc(Cl)c(Cl)c1)OCCN1CCCC1.O=C(O)C(=O)O [AC 915 oxalate]
3. NC1CONC1=O [L-Cycloserine]
4. CC(N)=O [Acetamide]
5. CC(CCC(=O)NCCS(=O)(=O)O)C1CCC2C3C(O)CC4CC(O)CCC4(C)C3CC(O)C12C (configuration not stated)
6. Nc1c2c(nc3ccccc13)CCCC2O.O=C(O)C=CC(=O)O (configuration not stated) [Hydroxytacrine]
7. CC1c2cccc(O)c2C(O)=C2C(=O)C3(O)C(O)=C(C(N)=O)C(=O)C(N(C)C)C3C(O)C21 (configuration not stated)

a:
1. 104
2. 105
3. 102
4. 103
5. 104
6. 101
7. 93.9

Count: 4. Required value per item: cell number.
1. CC(=O)OC1C(C)OC(Oc2c(-c3ccc(O)cc3)oc3cc(O)cc(O)c3c2=O)C(O)C1OC(C)=O (configuration not stated)
2. CNCCC(Oc1ccc(C(F)(F)F)cc1)c1ccccc1.Cl (stereo not drawn) [S-(+)-Fluoxetine hydrochloride]
3. C=C1CC23CC1(O)CCC2C12C=CC(O)C(C)(C(=O)O1)C2C3C(=O)O (single isomer, unassigned; (+)) [(+)-Gibberellic acid]
4. NC(=O)c1ccccc1 [Benzamide]

a:
[92.8, 93.3, 112, 87.1]

Parameters: items (list). Returns: cell number for each item.
1. CC(=O)O.CN=C(N)NCCCC(N)C(=O)O [NG-Monomethyl-L-arginine acetate]
2. COC(C(=O)C(O)C(C)O)C1Cc2cc3cc(OC4CC(OC5CC(O)C(O)C(C)O5)C(O)C(C)O4)c(C)c(O)c3c(O)c2C(=O)C1OC1CC(OC2CC(OC3CC(C)(O)C(O)C(C)O3)C(O)C(C)O2)C(O)C(C)O1 (configuration not stated)
3. Cc1c2c(c(O)c3c(O)cccc13)C(=O)OC2C1C(O)C(=O)C(C(N)=O)=C(O)C1N(C)C (racemic)
4. CN(C)CCCN1c2ccccc2Sc2ccc(Cl)cc21.Cl [Chlorpromazine hydrochloride]
5. Br.Oc1ccc(C2CNCCc3c2cc(O)c(O)c3Cl)cc1 (configuration not stated) [Fenoldopam bromide]

a:
102
29.9
93.1
64.4
100

----------
Give cell number for every item shown.
Tested on: TDF
Test: cell number relative to DMSO (% of DMSO); higher = more cells (less growth inhibition / toxicity)
Conditions: concentration: 10 µM; 24 h
Numbers only.

// known answers, use as guide
{"MOLECULE": "CCN(CC)CCNC(=O)c1ccc(N)cc1.Cl [Procainamide.HCl]", "cell number": 101}
{"MOLECULE": "NCC1OC(OC2C(CO)OC(OC3C(O)C(N)CC(N)C3OC3OC(CO)C(O)C(O)C3N)C2O)C(N)C(O)C1O.O=S(=O)(O)O (stereo not drawn) [Paromomycin sulfate]", "cell number": 106}
{"MOLECULE": "CCCCCCCCC(=O)NCc1cc(OC)c(O)cc1I [N-(4-hydroxy-2-iodo-5-methoxybenzyl)nonanamide]", "cell number": 98.9}

// batch mode: one cell number value per listed entry
1. CS(=O)c1ccc(-c2nc(-c3ccc(F)cc3)c(-c3ccncc3)[nH]2)cc1.Cl (stereo not drawn)
2. CCOC(=O)C(CCc1ccccc1)NC(C)C(=O)N1C(C(=O)O)CC2CCCC21 (stereo not drawn) [Ramipril]
3. CCCCCC(O)C=CC1C=CC(=O)C1CCCCCCC(=O)O (stereo not drawn) [Prostaglandin A1]
4. Ic1cccc(CSc2nnc(-c3ccncc3)o2)c1 [GSK-3b Inhibitor II]

a:
1: 99.5; 2: 105; 3: 98; 4: 106

q: Item under review: CON=C(C(=O)NC1C(=O)N2C(C(=O)[O-])=C(COC(C)=O)CSC12)c1csc(N)n1.[Na+] (stereo not drawn) [Cefotaxime sodium] . Reported cell number?
a: 117

----------
System: TDF
Test: H1.0 immunofluorescence intensity relative to DMSO (% of DMSO); higher = stronger H1.0 induction, active = 120 or more
Details: concentration: 10 µM; 24 h
Could you please report measured H1.0 immunofluorescence intensity for the items listed next?
Numbers only.

Solved entries (count: 5):
{"COMPOUND": "CCCCCC=CCC=CCC=CC=CC1CCCC(=O)O1 (racemic)", "ASSAY_TARGET": "TDF", "H1.0 immunofluorescence intensity": 98.2}
{"COMPOUND": "NC(N)=NC(=O)c1nc(Cl)c(N)nc1N [Amiloride]", "ASSAY_TARGET": "TDF", "H1.0 immunofluorescence intensity": 97.3}
{"COMPOUND": "COc1ccc(C2CC(=O)c3c(O)cc(O)cc3O2)cc1O (stereo unspecified)", "ASSAY_TARGET": "TDF", "H1.0 immunofluorescence intensity": 98.1}
{"COMPOUND": "C[N+](C)(C)CCOC(=O)CCC(=O)OCC[N+](C)(C)C.[Cl-].[Cl-] [Succinylcholine chloride]", "ASSAY_TARGET": "TDF", "H1.0 immunofluorescence intensity": 95.5}
{"COMPOUND": "CCCCCCCCCCCC=CC(C)(C)C=CCCCC(=O)O [7,7-Dimethyl-(5Z,8Z)-eicosadienoic acid]", "ASSAY_TARGET": "TDF", "H1.0 immunofluorescence intensity": 91.9}

Could I get H1.0 immunofluorescence intensity for every one of these entries?
1. COc1ccc(S(=O)(=O)Nc2nc(-c3cccc([N+](=O)[O-])c3)c(CN3CCCCC3)s2)cc1OC
2. CN(C)CCC(c1ccc(Br)cc1)c1ccccn1.O=C(O)C=CC(=O)O (single isomer, unassigned; (+)) [(+)-Brompheniramine maleate]
3. COC(=O)NC(C(=O)NC(Cc1ccccc1)C(O)CN(Cc1ccc(-c2ccccn2)cc1)NC(=O)C(NC(=O)OC)C(C)(C)C)C(C)(C)C (stereo unspecified)
4. CCCCCCCCC=CCCCCCCCC(=O)NCCO
5. COc1ccccc1N1CCN(CC(O)COc2cccc3ccccc23)CC1.Cl.Cl (stereo unspecified) [Naftopidil dihydrochloride]
6. COc1cc2ncnc(Nc3cccc(Cl)c3)c2cc1OC [Tyrphostin AG 1478]

a:
1. 89.5
2. 113
3. 109
4. 98.4
5. 101
6. 96.2

Hi team, please reply with H1.0 immunofluorescence intensity for each item in this list.
1. CN(C)CCC=C1c2ccccc2COc2ccccc21.Cl [Doxepin hydrochloride]
2. CCCCCCCCCCOCCC(=O)O
3. COc1cccc(OC)c1OCCNCC1COc2ccccc2O1.Cl (stereo unspecified) [WB-4101 hydrochloride]

a:
1. 93.1
2. 95.6
3. 93.7

Okay, here is my list. What is H1.0 immunofluorescence intensity for each of these?
1. CC1COc2c(N3CCN(C)CC3)c(F)cc3c(=O)c(C(=O)O)cn1c23 (stereo unspecified)
2. CCCC1=C(c2ccc(O)cc2)N(c2ccc(O)cc2)NC1=C1C=CC(=O)C=C1 [1,3,5-tris(4-hydroxyphenyl)-4-propyl-1H-pyrazole]

a:
1. 95
2. 92.5
